Reference source for all entries: ChEMBL document CHEMBL5356955

Target: Pyruvate dehydrogenase E1 component subunit alpha, somatic form, mitochondrial (Sus scrofa) (UniProt P29804)
Sequence (P29804 as listed by the source): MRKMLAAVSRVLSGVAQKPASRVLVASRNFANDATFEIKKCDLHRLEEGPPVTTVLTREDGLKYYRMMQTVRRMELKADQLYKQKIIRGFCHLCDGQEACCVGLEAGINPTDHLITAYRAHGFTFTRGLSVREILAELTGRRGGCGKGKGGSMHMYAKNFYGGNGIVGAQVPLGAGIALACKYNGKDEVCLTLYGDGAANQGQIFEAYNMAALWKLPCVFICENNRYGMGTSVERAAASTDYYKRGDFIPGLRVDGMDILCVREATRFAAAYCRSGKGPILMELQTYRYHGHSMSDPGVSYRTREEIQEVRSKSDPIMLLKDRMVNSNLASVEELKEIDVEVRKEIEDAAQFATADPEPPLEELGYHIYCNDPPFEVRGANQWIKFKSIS
Assay: Inhibition of porcine PDHc E1-subunit at 10 uM at 1:1 compound: thiamine pyrophosphate ratio incubated for 30 mins followed by pyruvate addition by microplate reader analysis relative to control
REPORTED_ENDPOINT: inhibition (%)

// worked examples, inhibition included
Report inhibition for COc1ccc(C(=O)OCCc2cn(Cc3cnc(C)nc3N)nn2)cc1
63

Please supply the value of reported inhibition for the item COc1ccc(C(=O)NCCc2scc(Cc3cnc(C)nc3N)c2C)cc1
65

[1] COc1ccc(C2(NCCc3cn(Cc4cnc(C)nc4N)nn3)COC2)cc1
[2] COc1ccc(C(=O)NCCc2cn(Cc3cnc(C)nc3N)nn2)cc1
I would appreciate it if you could say which entry, 1 or 2 , has the lower inhibition value. Mark your selection by writing its label.
2
